FYI, the data here is from ChEMBL document CHEMBL3137667.

- CONDITION_LABEL: human, serum
Outcome label depends on Hepatotoxicity (acute) relative to 1: at/above gives true, below gives false.

Query: Could you tell me if the measured Hepatotoxicity (acute) of FILGRASTIM reaches 1 or more?
Result: true

Query: Could you tell me if the measured Hepatotoxicity (acute) of TINZAPARIN SODIUM reaches 1 or more?
Result: false

Query: Could you tell me if the measured Hepatotoxicity (acute) of BCG VACCINE reaches 1 or more?
Result: true

Query: Could you tell me if the measured Hepatotoxicity (acute) of NEDAPLATIN reaches 1 or more?
Result: false

Query: Could you tell me if the measured Hepatotoxicity (acute) of POVIDONE reaches 1 or more?
Result: false

Query: Could you tell me if the measured Hepatotoxicity (acute) of GEMTUZUMAB OZOGAMICIN reaches 1 or more?
Result: true

Query: Could you tell me if the measured Hepatotoxicity (acute) of ETANERCEPT reaches 1 or more?
Result: false

Query: Could you tell me if the measured Hepatotoxicity (acute) of ALDESLEUKIN reaches 1 or more?
Result: true

Query: Could you tell me if the measured Hepatotoxicity (acute) of INTERLEUKIN 1BETA reaches 1 or more?
Result: false

Query: Could you tell me if the measured Hepatotoxicity (acute) of PARAFFIN reaches 1 or more?
Result: false

Query: Could you tell me if the measured Hepatotoxicity (acute) of PEGLOTICASE reaches 1 or more?
Result: false

====

Quick list: Hepatotoxicity (cytolytic) per entry.
- CONDITION_LABEL: human
Field format: numeric only.

Answered examples (3):
CC[C@H]1OC(=O)[C@H](C)[C@@H](O[C@H]2C[C@@](C)(OC)[C@@H](O)[C@H](C)O2)[C@H](C)[C@@H](O[C@@H]2O[C@H](C)C[C@H](N(C)C)[C@H]2O)[C@](C)(OC)C[C@@H](C)C(=O)[C@H](C)[C@@H](O)[C@]1(C)O [CLARITHROMYCIN] | 9
O=C(O)/C=C/C(=O)O [FUMARIC ACID] | 0
CCC(COC(=O)c1cc(OC)c(OC)c(OC)c1)(c1ccccc1)N(C)C (centres undefined) [TRIMEBUTINE] | 1

Here's the next entry for you.
Query: Fill in reported Hepatotoxicity (cytolytic) for this entry: Cc1ccc(S(=O)(=O)NC(=O)NN2CC3CCCC3C2)cc1 (centres undefined) [GLICLAZIDE]
Result: 2

====

- CONDITION_LABEL: human, serum
Quick list: Hepatotoxicity (acute) per entry.

O=c1n(CC2CO2)c(=O)n(CC2CO2)n1CC1CO1 (stereo unspecified) | 0
CC[C@H](C)[C@H]1NC(=O)[C@@H](NC(=O)[C@@H](CC(C)C)N(C)C(=O)[C@@H]2CCCN2C(=O)C(C)O)[C@@H](C)OC(=O)[C@H](Cc2ccc(OC)cc2)N(C)C(=O)[C@@H]2CCCN2C(=O)[C@H](CC(C)C)NC(=O)[C@@H](C)C(=O)[C@H](C(C)C)OC(=O)C[C@@H]1O (stereo partly specified) | 2
OC(Cn1cncn1)(Cn1cncn1)c1ccc(F)cc1F | 25
CC(C)(C)NC(=O)[C@@H]1CN(Cc2cccnc2)CCN1C[C@@H](O)C[C@@H](Cc1ccccc1)C(=O)N[C@H]1c2ccccc2C[C@H]1O.O | 12
O=C(CCBr)N1CCN(C(=O)CCBr)CC1 | 1

Here's the next entry for you.
Query: Fill in reported Hepatotoxicity (acute) for this entry: CCOC(=O)C(C)(CC)Oc1ccc(Cc2ccc(Cl)cc2)cc1 (stereo unspecified) [BECLOBRATE]
Result: 2
